Would you mind telling me the reported pKd of each entry?
Target: bulge-deleted (mut) TAR RNA
Experiment: Fluorescence polarization anisotropy (FPA) binding to fluorescein-labeled bulge-deleted TAR RNA
Parameters: species or system HIV-1
Details: FPA, 20 mM KCl, fluorescein-tagged bulge-deleted TAR RNA, room temperature
Procedure: β-Peptide and mutant β-peptide binding affinities to TAR RNA were measured by fluorescence anisotropy method on a PTI (Photon Technology International) fluorescence spectrophotometer. A T-format setup based on two emission channels was used. […] The anisotropy can be calculated from equation 1, [formula] • where III and I⊥ are fluorescence intensities observed when the emission polarizer is oriented parallel and perpendicular to the direction of the polarized excitation, respectively. […]
Give bare numbers, as −log10 of the molar value.

Example cases with answers are listed next.
The recorded pKd for entry β-amino acid oligomer (β-peptide) analogue of Tat 47-57 (YGRKKRRQRRR, SEQ ID NO:1) [wt β-peptide 1] equals 6.55

The recorded pKd for entry β-peptide in which all arginine side chains have been replaced by lysine side chains (YGKKKKKQKKK; SEQ ID NO:2) [mut β-peptide 2] equals 7.48

As a next step, examine the substance that follows.
The substance identified as N-Tyr-Gly-Arg-Lys-Lys-Arg-Arg-Gln-Arg-Arg-Arg [α-TatR 3, reference compound] registered its pKd at 8.96
